Test system: SN12C
assay info: NCI one-dose SRB anti-proliferative screen
Type: cell-based
reported conditions: Homo sapiens, SN 12C, Renal cancer, NCI one dose, read-out: Cell growth inhibition %
Categorized via inhibition at 10 µM: small value (below 3%), mid value (3% to below 10%), large value (10% or more)

# bin lookup: classify COc1ccc(/C=C/C(=O)c2ccc(NC(=O)CSc3nnc(-c4ccc5[nH]c(-c6ccccc6)nc5c4)o3)cc2)cc1 by its inhibition at 10 µM
mid value

# bin lookup: classify COc1ccc(-c2nc3cc(-c4nnc(SCC(=O)Nc5ccc(C(=O)/C=C/c6ccc(Cl)cc6)cc5)o4)ccc3[nH]2)cc1 by its inhibition at 10 µM
large value

# bin lookup: classify COc1ccc(/C=C/C(=O)c2ccc(NC(=O)CSc3nnc(-c4ccc5[nH]c(-c6ccc(OC)cc6)nc5c4)o3)cc2)cc1 by its inhibition at 10 µM
large value

# bin lookup: classify COc1ccc(-c2nc3cc(-c4nnc(SCC(=O)Nc5ccc(C(=O)/C=C/c6ccc(OC)c(OC)c6)cc5)o4)ccc3[nH]2)cc1 by its inhibition at 10 µM
mid value

# bin lookup: classify COc1ccc(-c2nc3cc(-c4nnc(SCC(=O)Nc5ccc(C(=O)/C=C/c6ccccc6)cc5)o4)ccc3[nH]2)cc1 by its inhibition at 10 µM
large value

# bin lookup: classify COc1cc(/C=C/C(=O)c2ccc(NC(=O)CSc3nnc(-c4ccc5[nH]c(-c6ccccc6)nc5c4)o3)cc2)cc(OC)c1OC by its inhibition at 10 µM
mid value

# bin lookup: classify COc1ccc(/C=C/C(=O)c2ccc(NC(=O)CSc3nnc(-c4ccc5[nH]c(-c6ccccc6)nc5c4)o3)cc2)cc1OC by its inhibition at 10 µM
small value

# bin lookup: classify O=C(CSc1nnc(-c2ccc3[nH]c(-c4ccccc4)nc3c2)o1)Nc1ccc(C(=O)/C=C/c2ccccc2)cc1 by its inhibition at 10 µM
small value

# bin lookup: classify COc1ccc(-c2nc3cc(-c4nnc(SCC(=O)Nc5ccc(C(=O)/C=C/c6cc(OC)c(OC)c(OC)c6)cc5)o4)ccc3[nH]2)cc1 by its inhibition at 10 µM
small value
